System: Alcaligenes viscolactis
run.description: in vitro antibacterial (ABMF) microdilution susceptibility test
Type: cell-based
run.conditions: Mueller-Hinton broth, 37° C., 16-24 hours, read-out: ABMF Test M.I.C. A. visc.

molecule: CCN(CC)CCn1nc2c3c(c([N+](=O)[O-])ccc31)Nc1ccc(N(C)C)cc1-2.CS(=O)(=O)O.CS(=O)(=O)O
MIC: 1.4 µg/mL
--
molecule: CCN(CC)CCn1nc2c3c(c([N+](=O)[O-])ccc31)Nc1c(OC)cccc1-2.CS(=O)(=O)O
MIC: < 0.46 µg/mL
--
molecule: CCCCOc1ccc2c(c1)-c1nn(CCNCCO)c3ccc([N+](=O)[O-])c(c13)N2 [Example 41, methanesulfonate, hemihydrate]
MIC: < 0.46 µg/mL
--
molecule: CCOC(=O)Oc1ccc2c(c1)-c1nn(CCN(CC)CC)c3ccc([N+](=O)[O-])c(c13)N2
MIC: < 0.46 µg/mL

----------
Reported MIC values for a set of molecules
Test system: Bacillus cereus
run.description: in vitro antibacterial (ABMF) microdilution susceptibility test
Assay type: cell-based
run.conditions: Mueller-Hinton broth, 37° C., 16-24 hours, read-out: ABMF Test M.I.C. B. cere.
measured.parameter: MIC (mg/L)

molecule: CN(C)CCCn1nc2c3c(c([N+](=O)[O-])ccc31)Nc1ccc(OC(=O)C(C)(C)C)cc1-2
inequality.symbol: =
measured.number: 333
//
molecule: Cc1ccc2c(c1)-c1nn(CCNCCO)c3ccc([N+](=O)[O-])c(c13)N2.Cl
inequality.symbol: <
measured.number: 0.46
//
molecule: CCN(CC)CCn1nc2c3c(c([N+](=O)[O-])ccc31)Nc1ccc(OC(C)=O)cc1-2
inequality.symbol: =
measured.number: 4.1
//
molecule: CCN(CC)CCn1nc2c3c(c([N+](=O)[O-])ccc31)Nc1ccc(N(C)C)cc1-2.CS(=O)(=O)O.CS(=O)(=O)O
inequality.symbol: =
measured.number: 37
//
molecule: CCCOc1ccc2c(c1)-c1nn(CCN(CC)CC)c3ccc([N+](=O)[O-])c(c13)N2.CS(=O)(=O)O
inequality.symbol: =
measured.number: 12.3
//
molecule: CCOc1ccc2c(c1)-c1nn(CCNCCO)c3ccc([N+](=O)[O-])c(c13)N2
inequality.symbol: <
measured.number: 0.46
//
molecule: CCN(CC)CCn1nc2c3c(c([N+](=O)[O-])ccc31)Nc1c(OC)cccc1-2.CS(=O)(=O)O
inequality.symbol: <
measured.number: 0.46
//
molecule: CCN(CC)CCn1nc2c3c(c([N+](=O)[O-])ccc31)Nc1ccc(OC)c(Cl)c1-2 [Example 25, methanesulfonate, hydrate]
inequality.symbol: <
measured.number: 0.46
//
molecule: CN(C)CCn1nc2c3c(c([N+](=O)[O-])ccc31)Nc1ccc(N(C)C)cc1-2 [Example 39, dihydrate]
inequality.symbol: =
measured.number: 12.3
//
molecule: CN(C)CCCn1nc2c3c(c([N+](=O)[O-])ccc31)Nc1ccc(O)cc1-2
inequality.symbol: =
measured.number: 0.46
//
molecule: CCN(CC)CCn1nc2c3c(c([N+](=O)[O-])ccc31)Nc1ccc(C)cc1-2
inequality.symbol: <
measured.number: 0.46
//
molecule: CCOc1ccc2c(c1)-c1nn(CCCN(C)C)c3ccc([N+](=O)[O-])c(c13)N2.CS(=O)(=O)O
inequality.symbol: =
measured.number: 4.1

----------
System: lymphocytic leukemia P388
run.description: in vivo lymphocytic leukemia P388 test
Design: species or system CD2 F1 mice
run.conditions: Mus musculus, P388, ip, 120 h, 12.5 mg/kg, intraperitoneally once daily for five days; read-out: P388 in vivo T/C × 100
Structures can show the parent of a compound that is named as a salt.
Reported response vs control in vivo at 12.5 mg/kg values for a set of compounds
measured.parameter: response vs control in vivo at 12.5 mg/kg (%)

compound: O=[N+]([O-])c1ccc2c3c(nn2CCNCCO)-c2ccccc2Nc13 [Example 3, monohydrochloride]
measured.number: 158

compound: CCN(CC)CCn1nc2c3c(c([N+](=O)[O-])ccc31)N(C)c1ccc(OC)cc1-2 [Example 6, monomethanesulfonate]
measured.number: 151

compound: CCN(CC)CCn1nc2ccc([N+](=O)[O-])c3c2c1-c1cc(OC)ccc1N3.CS(=O)(=O)O [Example 9, monomethanesulfonate]
measured.number: 120

compound: CCOc1ccc2c(c1)-c1nn(CCNCCO)c3ccc([N+](=O)[O-])c(c13)N2 [Example 40]
measured.number: 156

compound: COc1ccc2c(c1)-c1nn(CCNCCO)c3ccc([N+](=O)[O-])c(c13)N2 [Example 7, monohydrochloride]
measured.number: 138

compound: CCN(CC)CCn1nc2c3c(c([N+](=O)[O-])ccc31)Nc1c(OC)cccc1-2.CS(=O)(=O)O [Example 17]
measured.number: 106

compound: CCNCCn1nc2c3c(c([N+](=O)[O-])ccc31)Nc1ccc(OC)cc1-2 [Example 36, hemihydrate]
measured.number: 169

compound: CCOc1ccc2c(c1)-c1nn(CCCN(C)C)c3ccc([N+](=O)[O-])c(c13)N2.CS(=O)(=O)O [Example 46]
measured.number: 232

compound: CN(C)CCn1nc2c3c(c([N+](=O)[O-])ccc31)Nc1ccc(N(C)C)cc1-2 [Example 39, dihydrate]
measured.number: 164

compound: CCCCOc1ccc2c(c1)-c1nn(CCNCCO)c3ccc([N+](=O)[O-])c(c13)N2 [Example 41, methanesulfonate, hemihydrate]
measured.number: 174

compound: CC[N+]([O-])(CC)CCn1nc2c3c(c([N+](=O)[O-])ccc31)Nc1ccccc1-2 [Example 35]
measured.number: 167

compound: CCN(CC)CCn1nc2c3c(c([N+](=O)[O-])ccc31)Nc1ccc(OC)cc1-2 [Example 5]
measured.number: 197

compound: CCOc1ccc2c(c1)-c1nn(CCN(CC)CC)c3ccc([N+](=O)[O-])c(c13)N2.CS(=O)(=O)O [Example 18]
measured.number: 201

compound: CCN(CC)CCCn1nc2c3c(c([N+](=O)[O-])ccc31)Nc1ccc(OC)cc1-2 [Example 43]
measured.number: 184

compound: CCN(CC)CCn1nc2c3c(c([N+](=O)[O-])ccc31)N(C)c1ccccc1-2 [Example 2, methanesulfonate]
measured.number: 126

----------
Reported MIC values for a set of compounds
Tested on: Streptococcus pneumoniae
run.description: in vitro antibacterial (ABMF) microdilution susceptibility test
Assay type: cell-based
run.conditions: read-out: ABMF Test M.I.C. S. pneu.

compound: COc1ccc2c(c1)-c1nn(CCCN(C)C)c3c([N+](=O)[O-])cc([N+](=O)[O-])c(c13)N2.CS(=O)(=O)O
MIC: < 0.46 µg/mL

compound: COc1ccc2c(c1)-c1nn(CCN(C)C)c3c([N+](=O)[O-])cc([N+](=O)[O-])c(c13)N2 [Example 54, hydrate]
MIC: 0.46 µg/mL

compound: CCN(CC)CCn1nc2c([N+](=O)[O-])cc([N+](=O)[O-])c3c2c1-c1cc(OC)ccc1N3.CS(=O)(=O)O
MIC: 12.3 µg/mL

compound: CCN(CC)CCn1nc2c3c(c([N+](=O)[O-])cc([N+](=O)[O-])c31)Nc1ccc(OCc3ccc(OC)cc3)cc1-2.CS(=O)(=O)O
MIC: < 0.46 µg/mL

compound: CCN(CC)CCn1nc2c3c(c([N+](=O)[O-])cc([N+](=O)[O-])c31)Nc1ccc(OC)cc1-2 [Example 50, hydrate]
MIC: < 0.46 µg/mL

compound: CCN(CC)CCn1nc2c3c(c([N+](=O)[O-])cc([N+](=O)[O-])c31)Nc1ccc(O)cc1-2 [Example 49, methanesulfonate, hemihydrate]
MIC: < 0.46 µg/mL

compound: COc1ccc2c(c1)-c1nn(CCCN(C)C)c3ccc([N+](=O)[O-])c(c13)N2
MIC: < 0.46 µg/mL

compound: CCN(CC)CCn1nc2c3c(c([N+](=O)[O-])ccc31)Nc1ccc(O[Si](C)(C)C(C)(C)C)cc1-2
MIC: > 1000 µg/mL

compound: CCOc1ccc2c(c1)-c1nn(CCN(CC)CC)c3c([N+](=O)[O-])cc([N+](=O)[O-])c(c13)N2.CS(=O)(=O)O.O
MIC: 111 µg/mL

----------
Reported MIC values for a set of compounds
System: Escherichia coli
run.description: in vitro antibacterial (ABMF) microdilution susceptibility test
Assay type: cell-based
run.conditions: Mueller-Hinton broth, 37° C., 16-24 hours, read-out: ABMF Test M.I.C. E. coli

compound: CC(=O)Oc1ccc2c(c1)-c1nn(CCCN(C)C)c3ccc([N+](=O)[O-])c(c13)N2
inequality.symbol: <
MIC, µg/mL: 0.46
//
compound: CCN(CC)CCn1nc2c3c(c([N+](=O)[O-])ccc31)Nc1ccc(N(C)C)cc1-2.CS(=O)(=O)O.CS(=O)(=O)O
inequality.symbol: =
MIC, µg/mL: 37
//
compound: CCCCCCCC(=O)Oc1ccc2c(c1)-c1nn(CCN(CC)CC)c3ccc([N+](=O)[O-])c(c13)N2 [Example 30, hemihydrate]
inequality.symbol: =
MIC, µg/mL: 37
//
compound: CCN(CC)CCn1nc2c3c(c([N+](=O)[O-])ccc31)Nc1c(OC)cccc1-2.CS(=O)(=O)O
inequality.symbol: <
MIC, µg/mL: 0.46
//
compound: CCOC(=O)Oc1ccc2c(c1)-c1nn(CCN(CC)CC)c3ccc([N+](=O)[O-])c(c13)N2
inequality.symbol: =
MIC, µg/mL: 4.1
